Tested on: recombinant NL4-3 virus (Renilla luciferase in nef, Gag P373S; NLRluc) in MT-2 cells
Test Protocol: whole plant or invertebrate
Format: cell-based, HIV
Stated Conditions: Renilla, NL43, luciferase activity in cells infected for 4-5 days with NLRluc recombinants, serial dilutions of inhibitor; class symbols (key in Table 1); read-out: EC50
Endpoint Name: EC50

Smiles Representation	EC50
C=C(C)[C@@H]1CC[C@]2(NCCNc3ccccc3)CC[C@]3(C)[C@H](CC[C@@H]4[C@@]5(C)CC=C(c6ccc(C(=O)O)cc6)C(C)(C)[C@@H]5CC[C@]43C)[C@@H]12	< 100 nM

q: State measured EC50 of the compound C=C(C)[C@@H]1CC[C@]2(NC(=O)NCCCCCN(C)C)CC[C@]3(C)[C@H](CC[C@@H]4[C@@]5(C)CC=C(c6ccc(C(=O)O)cc6)C(C)(C)[C@@H]5CC[C@]43C)[C@@H]12 with recombinant NL4-3 virus (Renilla luciferase in nef, Gag P373S; NLRluc) in MT-2 cells.
a: < 100 nM
